Test system: P. aeruginosa ATCC 9027
Method: Antibacterial activity, pre-exposure
Type: cell-based, Pseudomonas aeruginosa
Test Conditions: P. aeruginosa ATCC 9027, pre-exposure, 50 µM, ± SD
Quantity: Average inhibition %, biofilms viability

{"Compound": "CCCCCCCCCCc1ccc(CCC(N)(CO)CO)cc1 [Compound 11]", "Quantity": "Average inhibition %, biofilms viability", "Result": "0 ± 0%"}
{"Compound": "CCCCCCCCc1ccc(CC(N)(CO)CO)cc1 [Compound 44]", "Quantity": "Average inhibition %, biofilms viability", "Result": "9 ± 8%"}
{"Compound": "CCCCCCCCCCc1ccc2nc(CC(N)(CO)CO)ccc2c1 [Compound 83]", "Quantity": "Average inhibition %, biofilms viability", "Result": "12.2 ± 21.1%"}
{"Compound": "CCCCCC/C=C/c1ccc(CCC(N)(CO)CO)cc1 [Compound 42]", "Quantity": "Average inhibition %, biofilms viability", "Result": "3.9 ± 6.8%"}
{"Compound": "CCCCCCCCCCOc1ccc(CCC(N)(CO)CO)cc1 [Compound 49]", "Quantity": "Average inhibition %, biofilms viability", "Result": "1.1 ± 1%"}
{"Compound": "CCCCCCCCc1ccc(C(O)CC(N)(CO)CO)cc1 (stereo not shown) [Compound 54]", "Quantity": "Average inhibition %, biofilms viability", "Result": "22.2 ± 26.9%"}
{"Compound": "CCCCCCCCc1ccc2cc(CC(N)(CO)CO)ccc2c1 [Compound 79]", "Quantity": "Average inhibition %, biofilms viability", "Result": "0 ± 0%"}
{"Compound": "CCCCCCCCc1cccc(CCC(N)(CO)CO)c1 [Compound 43]", "Quantity": "Average inhibition %, biofilms viability", "Result": "53.1 ± 41.1%"}
{"Compound": "CCCCCCCCOc1ccc(CCC(N)(CO)CO)cc1 [Compound 48]", "Quantity": "Average inhibition %, biofilms viability", "Result": "27.9 ± 25.6%"}
{"Compound": "CCCCCCCCc1ccc(CCC(N)(CO)CO)cc1 [fingolimod, Fingolimod]", "Quantity": "Average inhibition %, biofilms viability", "Result": "12.4 ± 13.4%"}
{"Compound": "CCCCCc1ccc(-c2ccc(CCC(N)(CO)CO)cc2)cc1 [Compound 15]", "Quantity": "Average inhibition %, biofilms viability", "Result": "0 ± 0%"}
{"Compound": "CCCCCCCCCCc1ccc(C(O)CC(N)(CO)CO)cc1 (stereo not shown) [Compound 55]", "Quantity": "Average inhibition %, biofilms viability", "Result": "13.6 ± 11.8%"}
{"Compound": "CCCCCCCCCCc1ccc2nc(CCC(N)(CO)CO)ccc2c1 [Compound 81]", "Quantity": "Average inhibition %, biofilms viability", "Result": "4.9 ± 5.2%"}
{"Compound": "CCCCCCCCc1ccc2nc(CCC(N)(CO)CO)ccc2c1 [Compound 80]", "Quantity": "Average inhibition %, biofilms viability", "Result": "9.8 ± 12.2%"}
{"Compound": "CCCCCCCCCCc1ccc(CCC(N)(CO)CO)nc1 [Compound 62]", "Quantity": "Average inhibition %, biofilms viability", "Result": "13.5 ± 11.7%"}
{"Compound": "CCCCCCCCc1ccc2ccc(CC(N)(CO)CO)nc2c1 [Compound 82]", "Quantity": "Average inhibition %, biofilms viability", "Result": "6.4 ± 5.7%"}
